molecular target: T1, mouse serum albumin (MSA), full length (mouse, UniProt P07724 25-608); assay: direct binding ELISA, coated MSA, anti-His-HRP; design: unit not given here
T1 construct: mature; Immobilized on CM5 chip (SPR) or coated on plates (ELISA); also called mouse albumin; murine serum albumin
Measured Parameter: MSA DB ELISA (OD450) Ymax obs

In the examples that follow, each entry is paired with its recorded MSA DB ELISA (OD450) Ymax obs.
IN: Item under review: ADX_6727_B09 (L38T/K85T) (designed binder, Full His6-tagged entry) MGVSDVPRDLEVVAATPTSLLISWDAPAVTVRYYRITYGREVQKYSDTGPLYIYQEFTVPGSKSTATISGLKPGVDYTITVYAVTGSGESPASSTPISINYRTEIDKPSQHHHHHH . Reported MSA DB ELISA (OD450) Ymax obs?
OUT: 27

IN: Now the same for ADX_6727_D02 (R30N) (designed binder, Full His6-tagged entry) MGVSDVPRDLEVVAATPTSLLISWDAPAVTVRYYRITYGNEVQKYSDLGPLYIYQEFTVPGSKSTATISGLKPGVDYTITVYAVTGSGESPASSKPISINYRTEIDKPSQHHHHHH
OUT: 93

I: ADX_6727_B11 (Q33D/K85S) (designed binder, Full His6-tagged entry) MGVSDVPRDLEVVAATPTSLLISWDAPAVTVRYYRITYGREVDKYSDLGPLYIYQEFTVPGSKSTATISGLKPGVDYTITVYAVTGSGESPASSSPISINYRTEIDKPSQHHHHHH
II: ADX_6727_H02 (I43S) (designed binder, Full His6-tagged entry) MGVSDVPRDLEVVAATPTSLLISWDAPAVTVRYYRITYGREVQKYSDLGPLYSYQEFTVPGSKSTATISGLKPGVDYTITVYAVTGSGESPASSKPISINYRTEIDKPSQHHHHHH
IN: Record comparison, field MSA DB ELISA (OD450) Ymax obs: mark the lower of I and II . To answer, give the label that identifies your chosen option.
OUT: I

The reported measurements were obtained from patent US20180258158A1.
